assay.details: Differential scanning fluorimetry (DSF) melting temperature of Sgf29 and variants
Format: physicochemical, Homo sapiens
condition.label: SYPRO-Orange fluorescence, 25 mM TRIS pH 7.5, 50 mM NaCl, 1 mM DTT, 2.5 μl of 25 μM protein in 25 μl, 20–95°C, 1°C min^-1, ± SD, measured in triplicate
measurement.type: Tm (°C)
Report as a plain number; the unit °C is understood.

# Tm (molecule: Y245F: Sgf29 variant, Y245 substitution (Y245F) (protein, left off: 6xHis, end not stated, cleaved) RRGVLMTLLQQSAMTLPLWIGKPGDKPPPLCGAIPASGDYVARPGDKVAARVKAVDGDEQWILAEVVSYSHATNKYEVDDIDEEGKERHTLSRRRVIPLPQWKANPETDPEALFQKEQLVLALYPQTTCFFRALIHAPPQRPQDDYSVLFEDTSYADGYSPPLNVAQRYVVACKEPKKK ) is 56.4
